Sourced from patent US20230270114A1

# System: Glomerella lagenarium (Colletotrichum lagenarium)
# testName: Example A3: Glomerella lagenarium (Colletotrichum lagenarium) / liquid culture (anthracnose)
# Format: cell-based
# studyConditions: Colletotrichum orbiculare; read-out: control of Glomerella lagenarium
measure: inhibition of growth at 20 ppm

Request: // query inhibition of growth at 20 ppm value for entry Cc1sc(N(C(=O)Cc2ccccc2)c2cc(F)nc(F)c2)nc1C(=O)NC1CCC1(C)C (centres unmarked)
Result: ≥ 80%

Request: // returns reported inhibition of growth at 20 ppm for input CC(=O)OCC(=O)N(c1cc(F)nc(F)c1)c1nc(C(=O)NC2CCC2(C)C)c(C)s1 (centres unmarked)
Result: ≥ 80%

Request: Which value of inhibition of growth at 20 ppm has been reported for CC(=O)N(c1cc(F)nc(F)c1)c1nc(C(=O)NC2CCC2(C)C)c(C)s1 (centres unmarked) in the records?
Result: ≥ 80%

Request: Could you share which inhibition of growth at 20 ppm value was measured for CCOC(=O)C(=O)N(c1cc(F)nc(F)c1)c1nc(C(=O)NC2CCC2(C)C)c(C)s1 (centres unmarked) ?
Result: ≥ 80%

Request: So what does the record say about inhibition of growth at 20 ppm for Cc1sc(N(C(=O)C(C)C)c2cc(F)nc(F)c2)nc1C(=O)NC1CCC1(C)C (centres unmarked) ?
Result: ≥ 80%

Request: Name the reported inhibition of growth at 20 ppm value associated with the compound CCN(CC)C(=O)N(c1cc(F)nc(F)c1)c1nc(C(=O)NC2CCC2(C)C)c(C)s1 (centres unmarked)
Result: ≥ 80%

Request: Name the reported inhibition of growth at 20 ppm value associated with the compound COC(=O)CC(=O)N(c1cc(F)nc(F)c1)c1nc(C(=O)NC2CCC2(C)C)c(C)s1 (centres unmarked)
Result: ≥ 80%

Request: Look up inhibition of growth at 20 ppm for this compound: COCC(=O)N(c1cc(F)nc(F)c1)c1nc(C(=O)NC2CCC2(C)C)c(C)s1 (centres unmarked)
Result: ≥ 80%
